Entry source: PubChem BioAssay (NCI)

# TGI values compiled below
System: HOP-62 NSCLC
METHOD SUMMARY: NCI tumour cell line growth inhibition, 48 h

[
  {
    "COMPOUND": "O=C(Nc1ccc(Nc2ccc3c(c2)C(=O)c2ccccc2C3=O)c2c1C(=O)c1ccccc1C2=O)c1ccccc1",
    "UNIT SYMBOL": "µM",
    "INEQUALITY SIGN": ">",
    "TGI": 100
  },
  {
    "COMPOUND": "CCCCCOC(=O)c1c(C)[nH]c(/C=C2\\N=C(c3ccc[nH]3)C=C2OC)c1C",
    "UNIT SYMBOL": "µM",
    "INEQUALITY SIGN": "=",
    "TGI": 0.937
  },
  {
    "COMPOUND": "CCn1c(-c2nonc2N)nc2cnc(Oc3cccc(NC(=O)c4ccc(OCCN5CCOCC5)cc4)c3)cc21",
    "UNIT SYMBOL": "µM",
    "INEQUALITY SIGN": ">",
    "TGI": 25
  },
  {
    "COMPOUND": "Cc1cc[c]([Sb]2[O]C(CO)C(C(O)C(O)C(=O)O)[O]2)cc1 (stereo not given)",
    "UNIT SYMBOL": "µM",
    "INEQUALITY SIGN": ">",
    "TGI": 100
  },
  {
    "COMPOUND": "CCOC(=O)c1ccc(-c2onc(C)c2Br)[nH]1",
    "UNIT SYMBOL": "µM",
    "INEQUALITY SIGN": ">",
    "TGI": 100
  },
  {
    "COMPOUND": "CN(C)CC1CCC/C(=C\\c2ccc(Cl)c(Cl)c2)C1=O (stereo not given)",
    "UNIT SYMBOL": "µM",
    "INEQUALITY SIGN": "=",
    "TGI": 26.8
  },
  {
    "COMPOUND": "O=c1[nH]nc(-c2ccc3ccccc3c2)[nH]1",
    "UNIT SYMBOL": "µM",
    "INEQUALITY SIGN": ">",
    "TGI": 100
  },
  {
    "COMPOUND": "CN1CCN(c2cc(F)c(NC3=C(Cl)C(=O)c4ncccc4C3=O)c(F)c2)CC1",
    "UNIT SYMBOL": "µM",
    "INEQUALITY SIGN": "=",
    "TGI": 5.18
  },
  {
    "COMPOUND": "Cc1c2ccccc2c(/C=N/NC(=O)CSCC(=O)N/N=C/c2c3ccccc3c(C)c3ccccc23)c2ccccc12",
    "UNIT SYMBOL": "µM",
    "INEQUALITY SIGN": "=",
    "TGI": 36.1
  },
  {
    "COMPOUND": "CCCCOc1ccc(/C=C/C2=[N+](CCO)CCO2)cc1",
    "UNIT SYMBOL": "µM",
    "INEQUALITY SIGN": ">",
    "TGI": 100
  }
]

###

Tested on: OVCAR-5 ovarian
METHOD SUMMARY: NCI tumour cell line growth inhibition, 48 h
Where a SMILES comes first, the peptide text is derived from it. [ ]: non-standard residue; d: D form. ξ: configuration not given here. Pentanoyl(2-O,4-OH,5-Cl) = O=C(O)C(O)CC(O)CCl; Ile(3ξ) = CCC(C)[C@H](N)C(=O)O; NMeV = CN[C@H](C(=O)O)C(C)C; NMeA = CN[C@@H](C)C(=O)O; βAla = NCCC(=O)O
# TGI values compiled below

[
  {
    "COMPOUND": "C[C@]12C(=O)OC[C@H](c3ccccc3)N1C(=O)N(Cc1ccccc1)[C@@H]2CO",
    "SYSTEM NAME": "OVCAR-5 ovarian",
    "TGI": "> 100 µM"
  },
  {
    "COMPOUND": "C=C(C)[C@@H]1CC[C@]2(C(=O)OC)CC[C@]3(C)[C@H](CC[C@@H]4[C@@](C)(CCc5nn[nH]n5)[C@H](C(=C)C)CC[C@]43C)[C@@H]12",
    "SYSTEM NAME": "OVCAR-5 ovarian",
    "TGI": "35.9 µM"
  },
  {
    "COMPOUND": "O=C1C(NS(=O)(=O)c2ccccc2)=C(n2ccnc2)C(=O)c2ccccc21",
    "SYSTEM NAME": "OVCAR-5 ovarian",
    "TGI": "> 100 µM"
  },
  {
    "COMPOUND": "N#Cc1cnc2ccc(NCc3cnc[nH]3)cc2c1Nc1ccc(F)c(Cl)c1",
    "SYSTEM NAME": "OVCAR-5 ovarian",
    "TGI": "> 100 µM"
  },
  {
    "COMPOUND": "COC(=O)/C(=C(/C)c1ccco1)P(=O)(OC)OC",
    "SYSTEM NAME": "OVCAR-5 ovarian",
    "TGI": "> 100 µM"
  },
  {
    "COMPOUND": "O=c1c2ccccc2c(=O)n2n1-c1cccc(c1)CSSCc1cccc-2c1",
    "SYSTEM NAME": "OVCAR-5 ovarian",
    "TGI": "> 100 µM"
  },
  {
    "COMPOUND": "COc1nc2ncc([C@@H](OC(C)=O)[C@@H](COC(C)=O)OC(C)=O)nc2c(=O)n1C",
    "SYSTEM NAME": "OVCAR-5 ovarian",
    "TGI": "> 100 µM"
  },
  {
    "COMPOUND": "Cc1cnoc1/N=C1\\C=C(Nc2oncc2C)C(=O)c2ccccc21",
    "SYSTEM NAME": "OVCAR-5 ovarian",
    "TGI": "> 100 µM"
  },
  {
    "COMPOUND": "O=C(c1ccccc1)[C@H]1Nc2ccc(Cl)cc2[C@H]2c3ccccc3O[C@H]21",
    "SYSTEM NAME": "OVCAR-5 ovarian",
    "TGI": "29.5 µM"
  },
  {
    "COMPOUND": "CC(C)(Sc1cc(C(C)(C)C)c(O)c(C(C)(C)C)c1)Sc1cc(C(C)(C)C)c(O)c(C(C)(C)C)c1",
    "SYSTEM NAME": "OVCAR-5 ovarian",
    "TGI": "> 100 µM"
  },
  {
    "COMPOUND": "CN1CCN(c2cc(F)c(NC3=C(Cl)C(=O)c4ncccc4C3=O)c(F)c2)CC1",
    "SYSTEM NAME": "OVCAR-5 ovarian",
    "TGI": "3.6 µM"
  },
  {
    "COMPOUND": "CCC(C)[C@@H]1NC(=O)[C@@H]2CCCN2C(=O)C(CC(O)CCl)OC(=O)CCNC(=O)[C@H](C)N(C)C(=O)[C@H](C(C)C)N(C)C1=O (some centres undefined) (cyclo([Ile(3ξ)][NMeV][NMeA][βAla][Pentanoyl(2-O,4-OH,5-Cl)]P))",
    "SYSTEM NAME": "OVCAR-5 ovarian",
    "TGI": "> 100 µM"
  },
  {
    "COMPOUND": "O=C(O)C1CCCN1 (centres undefined)",
    "SYSTEM NAME": "OVCAR-5 ovarian",
    "TGI": "> 100 µM"
  },
  {
    "COMPOUND": "CC(Nc1cccc(Cl)c1)c1ccncc1 (centres undefined)",
    "SYSTEM NAME": "OVCAR-5 ovarian",
    "TGI": "> 100 µM"
  },
  {
    "COMPOUND": "O=C(O)c1ccccc1NS(=O)(=O)c1ccc(Cl)cc1",
    "SYSTEM NAME": "OVCAR-5 ovarian",
    "TGI": "> 100 µM"
  },
  {
    "COMPOUND": "O=c1[nH]c2c(C(F)(F)F)c(Cl)c(-c3ccccc3)nc2o1",
    "SYSTEM NAME": "OVCAR-5 ovarian",
    "TGI": "58.2 µM"
  },
  {
    "COMPOUND": "O=C(CN1CCCCC1)c1ccc2[nH]c(=O)oc2c1",
    "SYSTEM NAME": "OVCAR-5 ovarian",
    "TGI": "> 100 µM"
  },
  {
    "COMPOUND": "COc1cc(OC)c(OC)cc1/C=C/c1ccccn1",
    "SYSTEM NAME": "OVCAR-5 ovarian",
    "TGI": "> 10 µM"
  },
  {
    "COMPOUND": "CCCCCCCCCCCC1=NC(C)(C)CN1C(C)C",
    "SYSTEM NAME": "OVCAR-5 ovarian",
    "TGI": "16.1 µM"
  },
  {
    "COMPOUND": "CCCCCCc1cc2cc(C(=O)Nc3nc(C45CC6CC(CC(C6)C4)C5)cs3)c(=O)oc2cc1O",
    "SYSTEM NAME": "OVCAR-5 ovarian",
    "TGI": "71.3 µM"
  },
  {
    "COMPOUND": "COC(=O)C1=C(C(=O)OC)C23CC4CCC2(C(=O)C1O3)C4(C)C (centres undefined)",
    "SYSTEM NAME": "OVCAR-5 ovarian",
    "TGI": "> 100 µM"
  },
  {
    "COMPOUND": "O=C(O)CSC1=NCCN1",
    "SYSTEM NAME": "OVCAR-5 ovarian",
    "TGI": "> 100 µM"
  },
  {
    "COMPOUND": "COc1cccc2c1C(=O)c1c(O)c3c(c(O)c1C2=O)C[C@@](O)(/C(C)=N/NC(=O)c1cccc([N+](=O)[O-])c1)C[C@@H]3OC1CC(N)C(O)C(C)O1 (some centres undefined)",
    "SYSTEM NAME": "OVCAR-5 ovarian",
    "TGI": "13.5 µM"
  },
  {
    "COMPOUND": "OC1CCN2Cc3ccccc3N=C12 (centres undefined)",
    "SYSTEM NAME": "OVCAR-5 ovarian",
    "TGI": "> 100 µM"
  },
  {
    "COMPOUND": "O=[N+]([O-])c1ccc(Cl)c(C2CC(c3cccc4ccccc34)=Nc3ccccc3S2=O)c1 (centres undefined)",
    "SYSTEM NAME": "OVCAR-5 ovarian",
    "TGI": "76.1 µM"
  },
  {
    "COMPOUND": "CS(=O)(=O)N(CCC#N)c1ccc(/C=C2\\N=C(c3ccccc3Cl)OC2=O)cc1",
    "SYSTEM NAME": "OVCAR-5 ovarian",
    "TGI": "> 100 µM"
  },
  {
    "COMPOUND": "Cc1ccc2[nH]c3c(c2c1)C1CCC(C(C)(C)C)CC1C1C(=O)N(c2ccc(Oc4ccccc4)cc2)C(=O)C31 (centres undefined)",
    "SYSTEM NAME": "OVCAR-5 ovarian",
    "TGI": "> 81 µM"
  },
  {
    "COMPOUND": "COP(=O)(OC)[C@@](O)(c1ccccc1)[C@@H](O)[C@H](O)c1ccccc1",
    "SYSTEM NAME": "OVCAR-5 ovarian",
    "TGI": "> 100 µM"
  },
  {
    "COMPOUND": "COC1C(OC(=O)/C=C/C=C/C=C/C=C/C(=O)O)CCC2(CO2)C1C1(C)OC1CC=C(C)C (centres undefined)",
    "SYSTEM NAME": "OVCAR-5 ovarian",
    "TGI": "> 100 µM"
  },
  {
    "COMPOUND": "[Cu].c1ccc2c(c1)C1=NC2=NC2=NC(=NC3=NC(=NC4=NC(=N1)c1ccccc14)c1ccccc13)c1ccccc12",
    "SYSTEM NAME": "OVCAR-5 ovarian",
    "TGI": "> 100 µM"
  },
  {
    "COMPOUND": "CCN(CC)C1=Nc2ccccc2-n2ccnc2C1",
    "SYSTEM NAME": "OVCAR-5 ovarian",
    "TGI": "> 100 µM"
  },
  {
    "COMPOUND": "Cc1cc2c(cc1Cl)SSc1cc(Cl)c(C)cc1S(=O)(=O)Nc1nc(N)nn1C(O)n1nc(N)nc1NS2(=O)=O",
    "SYSTEM NAME": "OVCAR-5 ovarian",
    "TGI": "> 10 µM"
  },
  {
    "COMPOUND": "CCCSc1ccc2[nH]c(N3C(=O)/C(=C/c4ccc(O)c(OC)c4)N=C3c3ccccc3)cc2c1",
    "SYSTEM NAME": "OVCAR-5 ovarian",
    "TGI": "44.3 µM"
  },
  {
    "COMPOUND": "COc1ccc2c(c1)c(-c1ccc(-c3cn(C)c4ccc(OC)cc34)s1)cn2C",
    "SYSTEM NAME": "OVCAR-5 ovarian",
    "TGI": "> 100 µM"
  },
  {
    "COMPOUND": "OC1C2CN3CCN(C2)CC1(c1ccccc1)C3 (centres undefined)",
    "SYSTEM NAME": "OVCAR-5 ovarian",
    "TGI": "> 100 µM"
  },
  {
    "COMPOUND": "Fc1ccc(F)c(C=NC23CC4CC(CC(C4)C2)C3)c1",
    "SYSTEM NAME": "OVCAR-5 ovarian",
    "TGI": "> 10 µM"
  },
  {
    "COMPOUND": "CCCN1CCC(Oc2cc(Nc3nc(Nc4cccc(F)c4C(N)=O)c4cc[nH]c4n3)c(OC)cc2Cl)CC1",
    "SYSTEM NAME": "OVCAR-5 ovarian",
    "TGI": "7.27 µM"
  },
  {
    "COMPOUND": "CCOC(=O)CCCN",
    "SYSTEM NAME": "OVCAR-5 ovarian",
    "TGI": "> 100 µM"
  },
  {
    "COMPOUND": "COc1ccc(Nc2nc3ccccc3nc2-c2cccs2)cc1OC",
    "SYSTEM NAME": "OVCAR-5 ovarian",
    "TGI": "> 10 µM"
  }
]
